Measured values drawn from the supplement of paper PMC8728848 for this set.

- systemName: Gal(a1-3)Gal(b1-4)Glc
- protocolSummary: glycan array binding signal (z-score within array); higher = stronger binding
- particulars: glycan notation: IUPAC condensed, linker removed
About 410 targets per protein were measured; listed, in parts, are those with the strongest signals and a random draw of the rest.
experimentalReadout: glycan array binding signal (z-score)
Hey, just send me the number, nothing else.

Q. // query glycan array binding signal (z-score) value for entry EULS2 M3 (Oryza sativa) (protein) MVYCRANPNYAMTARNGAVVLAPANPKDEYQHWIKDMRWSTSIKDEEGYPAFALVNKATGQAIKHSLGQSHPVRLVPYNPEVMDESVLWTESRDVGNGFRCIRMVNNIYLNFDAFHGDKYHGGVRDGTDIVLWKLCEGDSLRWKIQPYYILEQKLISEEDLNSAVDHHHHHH
A. 0.227
